# tgt: T1, human complement C2 (human, UniProt P06681 21-752)
# T1 construct: Recombinant full-length human C2 with C-terminal 8x His tag, purified from Expi293F supernatant; also called human C2; huC2
# T1 sequence: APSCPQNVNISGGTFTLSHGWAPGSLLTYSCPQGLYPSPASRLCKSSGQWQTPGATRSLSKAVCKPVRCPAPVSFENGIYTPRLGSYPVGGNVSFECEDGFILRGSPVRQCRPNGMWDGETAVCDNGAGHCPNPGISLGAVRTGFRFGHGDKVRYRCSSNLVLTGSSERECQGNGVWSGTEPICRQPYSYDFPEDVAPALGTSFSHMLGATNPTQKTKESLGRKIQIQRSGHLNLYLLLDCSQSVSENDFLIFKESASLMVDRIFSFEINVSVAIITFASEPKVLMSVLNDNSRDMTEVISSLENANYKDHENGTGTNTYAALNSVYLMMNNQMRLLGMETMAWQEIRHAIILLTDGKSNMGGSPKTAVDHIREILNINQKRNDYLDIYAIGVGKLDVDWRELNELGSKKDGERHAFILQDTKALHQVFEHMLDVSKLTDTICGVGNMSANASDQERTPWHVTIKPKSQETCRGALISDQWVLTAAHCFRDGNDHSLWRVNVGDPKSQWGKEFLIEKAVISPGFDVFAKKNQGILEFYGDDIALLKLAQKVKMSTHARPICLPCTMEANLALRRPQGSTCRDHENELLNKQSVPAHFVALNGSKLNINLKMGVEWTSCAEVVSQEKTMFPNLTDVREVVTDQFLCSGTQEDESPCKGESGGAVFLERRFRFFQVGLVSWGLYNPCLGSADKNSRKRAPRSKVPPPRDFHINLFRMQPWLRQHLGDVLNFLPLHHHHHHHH
# assayText: SPR, mAb captured, C2 analyte, MHAs buffer, pH 7.3
testReadout: Kd (nM)

- RF16-242G (antibody, V domains shown, Germlined version of RF16-242) VH: EVQLVQSGAEVKKPGESLKISCKGSGYSFTSYWIGWVRQMPGKGLEWMGIIYPGDSDTRYSPSFQGQVTISADKSISTAYLQWSSLKASDTAMYYCARRGHYGDYFDYWGQGTLVTVSS VL: SYELTQPPSVSVSPGQTARITCSGDALPKKYAYWYQQKSGQAPVLVIYEDRRRPSGIPERFSGSSSGTMATLTISGAQVEDEADYYCYSRDRAGNQRVFGGGTQLTVLG: 558
- RF16-242 (antibody, V domains shown) VH: EVQLLQSGAEVKKPGESLKISCKGSGYSFTSYWIGWVRQMPGKGLEWMGIIYPGDSDTRYSPSFQGQVTISADKSISTAYLQWSSLKASDTAMYYCARRGHYGDYFDYWGQGTLVTVSS VL: SYELTQPPSVSVSPGQTARITCSGDALPKKYAYWYHQKSGQAPVLVIYEDRRRPSEIPERFSGSSSGTMATLTITGAQVEDEGVYFCYSRDRAGNQRVFGGGTQLTVLG: 460

Where do these numbers come from? They come from patent US20220332804A1.
